Target: ~100 representative kinases (Homo sapiens, UniProt Q99986)
Construct: Recombinant protein kinase domains with a concentration of 2 μM
Sequence (Q99986 whole entry, the tested form may be a part): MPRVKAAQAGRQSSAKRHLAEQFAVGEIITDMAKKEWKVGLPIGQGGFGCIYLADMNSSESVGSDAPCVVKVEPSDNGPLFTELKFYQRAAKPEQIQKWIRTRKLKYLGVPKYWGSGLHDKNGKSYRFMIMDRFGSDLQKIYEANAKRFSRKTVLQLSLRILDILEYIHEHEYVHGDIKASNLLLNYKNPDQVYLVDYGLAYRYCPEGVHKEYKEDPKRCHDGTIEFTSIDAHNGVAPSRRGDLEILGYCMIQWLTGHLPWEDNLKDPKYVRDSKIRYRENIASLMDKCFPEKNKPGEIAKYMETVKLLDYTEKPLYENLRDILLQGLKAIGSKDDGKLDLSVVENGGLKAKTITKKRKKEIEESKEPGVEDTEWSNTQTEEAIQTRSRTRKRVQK
Test: DSF 100 kinase selectivity screen;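 note: compound tested at 20 µM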
Assay type: binding
Details: Protein VRK1; DSF; average of three replicates
Examples of compounds with documented dTm follow.

{"compound": "CCc1ccc(NC(=O)C2(C(=O)Nc3cccc(-c4c[nH]c5ncnc(N6CCOCC6)c45)c3)CC2)cc1 [Compound 15]", "dTm / K": 1.12}
{"compound": "COc1cc2c(Oc3ccc(NC(=O)C4(C(=O)Nc5ccc(F)cc5)CC4)cc3F)ccnc2cc1OCCCN1CCOCC1 [Foretinib, reference compound]", "dTm / K": 1.05}
{"compound": "O=C(Nc1cccc(-c2c[nH]c3ncnc(N4CCOCC4)c23)c1)C1(C(=O)Nc2ccc(F)c(Br)c2F)CC1 [Compound 26]", "dTm / K": 1.02}
{"compound": "O=C(Nc1cccc(-c2c[nH]c3ncnc(N4CCOCC4)c23)c1)C1(C(=O)Nc2cc(Br)c(F)cc2F)CC1 [Compound 25]", "dTm / K": 1.24}
{"compound": "O=C(Nc1cccc(-c2c[nH]c3ncnc(N4CCOCC4)c23)c1)C1(C(=O)Nc2cccc3c2CCC3)CC1 [Compound 11]", "dTm / K": 0.56}
{"compound": "CCNc1nc(Nc2cc(F)c(C(=O)N3CCOCC3)cc2OC)ncc1C(F)(F)F [GNE-7915]", "dTm / K": 0.12}
{"compound": "COc1cc(S(C)(=O)=O)ccc1Nc1nc(N(C)C)c2c(Cl)c[nH]c2n1 [Compound 37]", "dTm / K": -0.55}
